# Tested on: 926638-142-R-J1-PDC complex spheroid viability;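 further: spheroids exposed to drugs for one week before readout; percent viability relative to DMSO vehicle control wells set as 100%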
# EXPERIMENT_SUMMARY: Anticancer human tumor 926638-142-R-J1-PDC patient-derived endometrial carcinoma cell line growth inhibition [POLQ]
# ASSAY_CONTEXT: second compound 0.0316 µM; first compound 0.316 µM; stronger effect = lower value
Listed here are compounds together with their documented viability, T/C.

Some compounds with known viability, T/C results, for comparison:
[
  {
    "COMPOUND": "COc1cccc2c1C(=O)c1c(O)c3c(c(O)c1C2=O)CC(O)(C(=O)CO)CC3OC1CC(N)C(O)C(C)O1 (stereo not drawn) + Cc1cccc(N(C)C(=O)C2C(O)CCN2c2nc(C)cc(C(F)(F)F)c2C#N)c1",
    "ASSAY_SYSTEM": "926638-142-R-J1-PDC complex spheroid viability",
    "viability, T/C": "21%"
  },
  {
    "COMPOUND": "O=c1[nH]cc(F)c(=O)[nH]1 + Cc1cccc(N(C)C(=O)C2C(O)CCN2c2nc(C)cc(C(F)(F)F)c2C#N)c1",
    "ASSAY_SYSTEM": "926638-142-R-J1-PDC complex spheroid viability",
    "viability, T/C": "96.6%"
  }
]

### Prompt Query viability, T/C for CC1COCCN1c1cc(-c2ccnn2C)c2ccnc(-c3ccn[nH]3)c2n1 (stereo not drawn) + Cc1cccc(N(C)C(=O)C2C(O)CCN2c2nc(C)cc(C(F)(F)F)c2C#N)c1
### Response 58%
